# Assay procedure: Area under curve was determined
# Format: ADME, organism-based, Canis lupus familiaris
# Condition notes: dog, in vivo
Observable: AUC (µM·h)
The response must be a number in µM·h with no trailing unit.

Return reported AUC; argument: CC(C)(C)NC(=O)[C@@H]1CN(Cc2cccnc2)CCN1C[C@@H](O)C[C@@H](Cc1ccccc1)C(=O)N[C@H]1c2ccccc2C[C@H]1O.O 12.5

###

# Assay procedure: Bioavailability
# Type: ADME, organism-based, Canis lupus familiaris
# Condition notes: dog, in vivo
Observable: bioavailability (%)
Unit % implied. Number only.

I am curious: what bioavailability value has been reported for CC(C)(C)NC(=O)[C@@H]1CN(Cc2cccnc2)CCN1C[C@@H](O)C[C@@H](Cc1ccccc1)C(=O)N[C@H]1c2ccccc2C[C@H]1O.O ? 71.6

###

# Test system: MT4
# Assay procedure: Concentration required to inhibit the spread of viral infection in MT-4 human T-lymphoid cells infected by the NL4-3 virus
# Format: functional
# Condition notes: read-out: CIC95
Assignment: determine reported IC95 for the given compounds.

Please look up its IC95: CC(C)(C)NC(=O)[C@@H]1CN(Cc2cc3cnccc3o2)CCN1C[C@@H](O)C[C@@H](Cc1ccccc1)C(=O)N[C@H]1c2ccccc2C[C@H]1O 0.015 µM

Given the entry CC(C)(C)NC(=O)[C@@H]1CN(Cc2cccnc2)CCN1C[C@@H](O)C[C@@H](Cc1ccccc1)C(=O)N[C@H]1c2ccccc2C[C@H]1O.O [INDINAVIR] , report its measured IC95. 0.05 µM

Consider the compound shown here: CC(C)(C)NC(=O)[C@@H]1CN(C(C)(C)c2cc3cnccc3o2)CCN1C[C@@H](O)C[C@@H](Cc1ccccc1)C(=O)N[C@H]1c2ccccc2C[C@H]1O What is its recorded IC95? 0.015 µM

// returns reported IC95 for input CC(C)(C)NC(=O)[C@@H]1CN(C(C)(C)c2cccnc2)CCN1C[C@@H](O)C[C@@H](Cc1ccccc1)C(=O)N[C@H]1c2ccccc2C[C@H]1O 0.05 µM

For the compound CC(C)(C)NC(=O)[C@@H]1CN(C(C)(C)c2cc3cnccc3o2)CCN1C[C@@H](O)C[C@@H](Cc1ccccc1)C(=O)N[C@H]1c2ccccc2OC[C@H]1O , what IC95 is on record? < 0.008 µM

###

# Assay procedure: Half life was determined
# Type: ADME, organism-based, Canis lupus familiaris
# Condition notes: dog, in vivo
Observable: half-life (min)
API: value field is a number in min; no unit string.

Look up half-life for this compound: CC(C)(C)NC(=O)[C@@H]1CN(Cc2cccnc2)CCN1C[C@@H](O)C[C@@H](Cc1ccccc1)C(=O)N[C@H]1c2ccccc2C[C@H]1O.O 38

###

# Assay procedure: Area under curve in dogs
# Type: ADME, organism-based, Canis lupus familiaris
# Condition notes: dog, in vivo
Observable: AUC (µM·h)
// note: answer is a bare numeric in µM·h

Quick one: AUC for CC(C)(C)NC(=O)[C@@H]1CN(C(C)(C)c2cc3cnccc3o2)CCN1C[C@@H](O)C[C@@H](Cc1ccccc1)C(=O)N[C@H]1c2ccccc2C[C@H]1O ? 14.1

Look at this molecule and give its reported AUC. CC(C)(C)NC(=O)[C@@H]1CN(C(C)(C)c2cc3cnccc3o2)CCN1C[C@@H](O)C[C@@H](Cc1ccccc1)C(=O)N[C@H]1c2ccccc2OC[C@H]1O 7.43
